# MIC per record follows
Test system: Mycobacterium tuberculosis
Experiment: Antimycobacterial activity against Mycobacterium tuberculosis H37Rv My 331/88 after 14 days by micromethod
Format: functional
Details: H37Rv My 331/88, 336 h
experimental readout: MIC (µM)

INSERT INTO results (compound, test_result) VALUES
  ('O=C(Nc1ccc(Br)cc1)c1cc(Br)c(Cl)cc1O', 2),
  ('O=C(Nc1cc(C(F)(F)F)cc(C(F)(F)F)c1)c1ccc(Br)cc1O', 2),
  ('O=C(Nc1ccc(Br)cc1)c1cc(Cl)c(Cl)cc1O', 2),
  ('O=C(Nc1ccc(Br)cc1)c1cc(Br)ccc1O [DIBROMSALAN]', 4),
  ('O=C(Nc1ccc(Cl)c(Cl)c1)c1cc(Br)c(Br)cc1O', 2),
  ('O=C(Nc1ccc(Cl)c(Cl)c1)c1cc(Br)c(Cl)cc1O', 2),
  ('O=C(Nc1ccc(Cl)c(Cl)c1)c1cc(Br)ccc1O', 4),
  ('O=C(Nc1ccc(Br)cc1)c1cc(Cl)c(Br)cc1O', 2),
  ('O=C(Nc1ccc(C(F)(F)F)cc1)c1cc(Cl)ccc1O', 2),
  ('O=C(Nc1cc(C(F)(F)F)cc(C(F)(F)F)c1)c1ccc(Cl)cc1O', 4),
  ('O=C(Nc1ccc(C(F)(F)F)cc1)c1ccc(Cl)cc1O', 4);

* * *

Test system: Mycobacterium tuberculosis
Experiment: Antimycobacterial activity against Mycobacterium tuberculosis H37Rv My 331/88 after 14 days by micromethod
Type: functional
Settings: H37Rv My 331/88, 336 h
# MIC per record follows
experimental readout: MIC (µM)

INSERT INTO measurements (line_notation, experimental_readout, result_units, test_result) VALUES
  ('O=C(Nc1ccc(Cl)c(Cl)c1)c1ccc(Cl)cc1O', 'MIC', 'µM', 4),
  ('O=C(Nc1ccc(C(F)(F)F)cc1)c1ccc(Br)cc1O', 'MIC', 'µM', 1),
  ('O=C(Nc1ccc(Br)cc1)c1cc(Br)c(Br)cc1O', 'MIC', 'µM', 4),
  ('O=C(Nc1cc(C(F)(F)F)cc(C(F)(F)F)c1)c1cc(Cl)c(Cl)cc1O', 'MIC', 'µM', 2),
  ('O=C(Nc1cc(C(F)(F)F)cc(C(F)(F)F)c1)c1cc(Br)c(Br)cc1O', 'MIC', 'µM', 2);

* * *

Test: Selectivity index, ratio of IC50 for human HepG2 cells to MIC for Mycobacterium tuberculosis H37Rv after 21 days
Format: toxicity, cell-based
Conditions: HepG2 cells versus Mycobacterium tuberculosis H37Rv, read-out: Selectivity Index
Kindly apply the following: TRUE if selectivity ratio at 504 h is less than 3, FALSE in every other case.

INSERT INTO measurements (molecule, cat) VALUES
  ('O=C(Nc1cc(C(F)(F)F)cc(C(F)(F)F)c1)c1cc(Br)ccc1O', 'FALSE'),
  ('O=C(Nc1ccc(Br)cc1)c1cc(Br)c(Cl)cc1O', 'TRUE'),
  ('O=C(Nc1ccc(Cl)c(Cl)c1)c1cc(Cl)c(Br)cc1O', 'TRUE'),
  ('O=C(Nc1cc(C(F)(F)F)cc(C(F)(F)F)c1)c1cc(Cl)c(Br)cc1O', 'TRUE'),
  ('O=C(Nc1ccc(Cl)c(Cl)c1)c1cc(Br)ccc1O', 'FALSE'),
  ('O=C(Nc1ccc(Cl)c(Cl)c1)c1cc(Br)c(Br)cc1O', 'TRUE'),
  ('O=C(Nc1ccc(Br)cc1)c1cc(Cl)c(Br)cc1O', 'FALSE'),
  ('O=C(Nc1ccc(Br)cc1)c1cc(Br)ccc1O [DIBROMSALAN]', 'FALSE'),
  ('O=C(Nc1ccc(Cl)c(Cl)c1)c1cc(Cl)c(Cl)cc1O', 'FALSE'),
  ('O=C(Nc1ccc(C(F)(F)F)cc1)c1ccc(Br)cc1O', 'FALSE'),
  ('O=C(Nc1cc(C(F)(F)F)cc(C(F)(F)F)c1)c1ccc(Br)cc1O', 'TRUE');
